# Tested on: primary rat mixed cortical cells
# EXPERIMENTAL_PROTOCOL: In vitro myelination assay (MBP positive myelin strands, fold myelin pixels above background)
# Format: cell-based
# RUN_PARAMETERS: Rattus norvegicus, 1.0 μM compound, relative to baseline of no added compound; read-out: Fold myelin pixels above background
PARAMETER: fold induction at 1 µM

Reference set, count: 4
CCn1cnc(Nc2cc(C)cc(Nc3ncn(-c4ccccc4)n3)c2)n1 :: 10 to 100
Fc1cc(Nc2ncn(-c3ccccn3)n2)cc(N2CCN(C3COC3)CC2)c1 :: 1 to 10
CN1CCN(c2cc(N3CCN(C4COC4)CC3)cc(Nc3ncn(-c4cc(F)cc(F)c4)n3)n2)CC1 :: 10 to 100
Cc1cc(Nc2ncn(-c3cc(F)cc(F)c3)n2)nc(N2CCC(C)(O)CC2)c1 :: 1 to 10

Please state fold induction at 1 µM for every molecule in the list that follows.
1. Fc1cc(Nc2ncn(-c3cnccn3)n2)cc(N2CCN(C3COC3)CC2)c1
2. Cc1cc(Nc2ncn(-c3ccc(C#N)cc3)n2)cc(N2CCN(C3COC3)CC2)c1

A)
1. 1 to 10
2. 1 to 10

Please state fold induction at 1 µM for every molecule in the list that follows.
1. Cc1cc(Nc2ncn(-c3cc(F)cc(OC(C)C)c3)n2)cc(N2CCN(C3COC3)CC2)c1
2. Cc1cc(Nc2ncn(-c3cc(F)cc(F)c3)n2)cc(N[C@H]2C[C@H](N3CCOCC3)C2)c1 (single isomer, unassigned)
3. FC(F)c1cc(Nc2ncn(-c3ccccc3)n2)cc(N2CCOCC2)c1
4. Cc1cc(Nc2ncn(-c3cc(F)cc(F)c3F)n2)cc(N2CCN(C3COC3)CC2)c1
5. Fc1cc(F)cc(-n2cnc(Nc3cc(N4CCN(C5COC5)CC4)cc(N4CCN(C5COC5)CC4)n3)n2)c1
6. Cc1cc(Nc2ncn(-c3ccc(C)c(Cl)c3)n2)cc(N2CCN(C3COC3)CC2)c1

A)
["100 to 1000", "10 to 100", "100 to 1000", "≤ 1", "1 to 10", "1 to 10"]

Please state fold induction at 1 µM for every molecule in the list that follows.
1. COCCNc1cc(F)cc(-n2cnc(Nc3cc(C)cc(N4CC(F)C4)c3)n2)c1
2. Fc1ccc(-n2cnc(Nc3cc(F)cc(N4CCOCC4)c3)n2)cc1
3. Cc1cc(Nc2ncn(-c3cc(F)cc(F)c3)n2)cc(C2CN(C3COC3)CCO2)c1 (stereo not shown)
4. Cc1cc(Nc2ncn(-c3cc(F)cc(F)c3)n2)nc(C2CCNCC2)c1

A)
1 to 10
1 to 10
10 to 100
1 to 10
